Reported log(10^6/IC50) values are given for each entry in this list.
Target: Interstitial collagenase (Homo sapiens) (UniProt P03956)
Sequence (whole entry): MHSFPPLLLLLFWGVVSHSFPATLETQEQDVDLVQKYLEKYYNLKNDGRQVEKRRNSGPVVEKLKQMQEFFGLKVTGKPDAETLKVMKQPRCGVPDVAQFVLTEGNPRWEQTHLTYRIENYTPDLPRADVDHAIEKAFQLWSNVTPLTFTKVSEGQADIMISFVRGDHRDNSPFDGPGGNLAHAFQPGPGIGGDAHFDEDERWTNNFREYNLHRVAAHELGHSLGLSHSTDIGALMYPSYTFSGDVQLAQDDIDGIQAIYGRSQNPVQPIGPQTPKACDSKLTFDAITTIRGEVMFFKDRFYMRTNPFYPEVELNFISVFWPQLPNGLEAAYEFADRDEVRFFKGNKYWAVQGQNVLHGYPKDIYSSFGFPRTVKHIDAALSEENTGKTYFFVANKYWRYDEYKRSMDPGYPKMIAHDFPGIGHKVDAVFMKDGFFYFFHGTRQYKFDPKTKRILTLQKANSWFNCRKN
Assay: Inhibition of MMP1
Please reply with the number alone, leaving off any unit.

O=C(NO)C1(S(=O)(=O)c2ccc(Oc3ccc(Cl)cc3)cc2)CCN(Cc2ccccc2)CC1 :: 3.1

Entry under review: COc1ccc(S(=O)(=O)C2(C(=O)NO)CCN(Cc3ccc(-c4ccccn4)cc3)CC2)cc1 . Reported log(10^6/IC50)?
3.37

Name the recorded log(10^6/IC50) for COc1ccc(S(=O)(=O)C(C)(Cc2ccc(-c3ccccc3)cc2)C(=O)NO)cc1 (stereo not given) .
3.8

State the recorded log(10^6/IC50) for this entry: COc1ccc(S(=O)(=O)C2(C(=O)NO)CCN(Cc3ccc(C)cc3)CC2)cc1
3.31

What measured log(10^6/IC50) goes with COc1ccc(S(=O)(=O)C(C)(C/C=C/c2ccccc2)C(=O)NO)cc1 (stereo not given) ?
3.52

Suppose we examine the molecule CCCCOc1ccc(S(=O)(=O)C2(C(=O)NO)CCN(C)CC2)cc1 ; what log(10^6/IC50) value has been reported?
2.47

So what's the measured log(10^6/IC50) for this one? COc1ccc(S(=O)(=O)C2(C(=O)NO)CCN(Cc3ccccc3)CC2)cc1
3.31

Find the recorded log(10^6/IC50) belonging to COc1ccc(S(=O)(=O)C2(C(=O)NO)CCN(Cc3cccc(OC)c3)CC2)cc1 and report it.
3.28

Data request, read-out log(10^6/IC50), for CCCCOc1ccc(S(=O)(=O)C2(C(=O)NO)CCN(CCOc3ccccc3)CC2)cc1
2.54

Which measured log(10^6/IC50) value corresponds to CCCCOc1ccc(S(=O)(=O)C2(C(=O)NO)CCN(Cc3cccc(OC)c3)CC2)cc1 ?
2.82

May I ask what log(10^6/IC50) has been recorded for O=C(NO)C1(S(=O)(=O)c2ccc(-c3ccco3)cc2)CCN(Cc2ccccc2)CC1 ?
4.4

Using the record for COc1ccc(S(=O)(=O)[C@@](C)(CC2CCCCC2)C(=O)NO)cc1 , report its log(10^6/IC50).
3.49

Which measured log(10^6/IC50) value corresponds to CCCCOc1ccc(S(=O)(=O)C2(C(=O)NO)CCN(CCCOc3ccccc3)CC2)cc1 ?
2.42

Recorded log(10^6/IC50) for COc1ccc(CN2CCC(C(=O)NO)(S(=O)(=O)c3ccc(Oc4ccc(Cl)cc4)cc3)CC2)cc1 , please?
3.31

Look up log(10^6/IC50): COc1ccc(S(=O)(=O)[C@](CCC(C)C)(Cc2cccnc2)C(=O)NO)cc1
3.24
